Biological target: human TLR9 (Homo sapiens, UniProt Q9NR96)
Construct: host or cells: HEK-Blue cells (HEK293-derived reporter line)
Sequence (Q9NR96 26-1032): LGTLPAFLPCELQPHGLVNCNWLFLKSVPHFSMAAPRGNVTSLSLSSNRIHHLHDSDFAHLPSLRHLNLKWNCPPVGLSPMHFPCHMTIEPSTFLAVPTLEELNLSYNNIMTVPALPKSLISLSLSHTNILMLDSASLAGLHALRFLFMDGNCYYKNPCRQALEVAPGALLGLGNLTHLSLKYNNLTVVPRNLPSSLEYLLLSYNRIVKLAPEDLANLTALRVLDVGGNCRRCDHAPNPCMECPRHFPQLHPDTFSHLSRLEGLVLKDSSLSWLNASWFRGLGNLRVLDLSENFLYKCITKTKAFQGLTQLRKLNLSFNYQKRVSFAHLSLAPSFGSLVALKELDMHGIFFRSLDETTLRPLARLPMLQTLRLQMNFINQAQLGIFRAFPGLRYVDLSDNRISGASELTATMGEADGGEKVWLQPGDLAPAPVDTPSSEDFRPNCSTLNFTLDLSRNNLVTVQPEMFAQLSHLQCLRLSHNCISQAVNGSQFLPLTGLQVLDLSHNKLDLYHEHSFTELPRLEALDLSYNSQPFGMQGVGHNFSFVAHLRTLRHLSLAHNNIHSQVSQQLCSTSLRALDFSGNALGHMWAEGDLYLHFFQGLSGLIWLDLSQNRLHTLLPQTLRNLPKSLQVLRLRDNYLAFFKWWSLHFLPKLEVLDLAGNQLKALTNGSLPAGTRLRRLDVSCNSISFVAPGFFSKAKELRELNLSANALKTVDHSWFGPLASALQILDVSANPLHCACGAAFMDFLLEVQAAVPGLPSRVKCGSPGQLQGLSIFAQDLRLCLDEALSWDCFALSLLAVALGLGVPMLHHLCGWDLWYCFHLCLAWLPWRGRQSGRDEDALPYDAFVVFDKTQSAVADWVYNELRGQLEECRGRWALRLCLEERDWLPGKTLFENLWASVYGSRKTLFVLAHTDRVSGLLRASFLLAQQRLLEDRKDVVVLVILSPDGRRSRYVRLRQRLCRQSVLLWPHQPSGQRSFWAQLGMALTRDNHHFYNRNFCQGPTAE
Test: TLR9 inhibition reporter assay (HEK-Blue cells, secreted embryonic alkaline phosphatase reporter)
Type: cell-based
Conditions: HEK-Blue cells overexpressing human TLR9, stimulated with ODN2006 5 nM; read-out: TLR 9 IC50
Listed here are molecules together with their documented pIC50.
# reply with the number alone; pIC50 is -log10 of concentration in mol/L

>>> recorded_measurement("Cc1cc(C2CCN(C3CCN(C4CC4)CC3)CC2)cc2c1nc(-c1ccc(S(C)(=O)=O)c(F)c1)n2C")
6.46

response.value for `CCOP(=O)(OCC)c1ccc(-c2nc3c(C)cc(C4CCN(C5CCN(C6CC6)CC5)CC4)cc3n2C)cc1` (field: pIC50) = 6.74

Looking up Cc1cc(C2CCN(C3CCCN(C4CCOCC4)CC3)CC2)cc2c1nc(-c1ccc(S(C)(=O)=O)cc1)n2C (single isomer, unassigned) [Example 306] , I see its pIC50 listed as 7.77

---

Entries and their IC50
Molecular target: human TLR8 (Homo sapiens)
Sequence (Q9NR97 27-1041): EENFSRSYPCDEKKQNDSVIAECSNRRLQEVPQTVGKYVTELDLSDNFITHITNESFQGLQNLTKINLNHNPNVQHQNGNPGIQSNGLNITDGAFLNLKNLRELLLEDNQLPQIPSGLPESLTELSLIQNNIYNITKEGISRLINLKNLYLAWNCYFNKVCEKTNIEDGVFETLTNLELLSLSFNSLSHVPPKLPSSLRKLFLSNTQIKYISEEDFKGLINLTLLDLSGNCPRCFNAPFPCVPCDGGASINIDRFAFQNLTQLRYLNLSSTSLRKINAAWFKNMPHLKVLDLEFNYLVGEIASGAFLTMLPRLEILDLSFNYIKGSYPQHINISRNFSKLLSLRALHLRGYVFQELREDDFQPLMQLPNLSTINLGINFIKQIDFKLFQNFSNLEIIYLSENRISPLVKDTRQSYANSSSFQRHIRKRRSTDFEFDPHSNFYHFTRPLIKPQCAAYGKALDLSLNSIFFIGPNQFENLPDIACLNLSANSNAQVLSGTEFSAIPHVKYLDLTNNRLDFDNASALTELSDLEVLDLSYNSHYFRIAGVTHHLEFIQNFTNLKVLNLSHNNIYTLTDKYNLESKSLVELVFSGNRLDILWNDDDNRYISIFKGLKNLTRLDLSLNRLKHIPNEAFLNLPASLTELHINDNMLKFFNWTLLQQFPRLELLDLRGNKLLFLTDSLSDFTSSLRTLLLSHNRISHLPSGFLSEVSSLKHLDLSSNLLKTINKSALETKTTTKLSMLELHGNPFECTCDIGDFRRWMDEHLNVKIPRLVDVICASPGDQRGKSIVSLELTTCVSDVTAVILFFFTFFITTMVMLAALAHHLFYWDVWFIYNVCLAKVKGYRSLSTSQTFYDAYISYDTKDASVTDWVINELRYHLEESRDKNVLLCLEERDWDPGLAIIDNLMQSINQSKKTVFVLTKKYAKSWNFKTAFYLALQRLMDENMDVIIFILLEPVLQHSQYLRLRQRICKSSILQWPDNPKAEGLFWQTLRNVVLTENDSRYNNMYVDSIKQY
Test: TLR8 inhibition reporter assay (HEK-Blue cells, secreted embryonic alkaline phosphatase reporter)
Conditions: HEK-Blue cells overexpressing human TLR8, stimulated with R848 15.9 μM; read-out: TLR 8 IC50

>>> recorded_measurement("Cn1c(-c2ccc(S(C)(=O)=O)cc2)nc2cc(F)c(C3CCN(C4CC5CCC(C4)N5C4CCC4)CC3)cc21 (stereo not drawn) [Example 232]")
"> 50 µM"
>>> recorded_measurement("COc1ccc(-c2nc3cc(C4CCN(C5CCN(C(C)C)CC5)CC4)c(C(F)(F)F)cc3[nH]2)cc1OC [Example 10]")
"> 50 µM"
>>> recorded_measurement("Cc1cc(C2CCN(C3CC4CCC(C3)N4C3CCC3)CC2)cc2[nH]c(-c3ccc(S(C)(=O)=O)cc3)nc12 (stereo not drawn) [Example 334]")
"> 50 µM"
>>> recorded_measurement("COc1cc(-c2nc3c(C)cc(C4CCN(C5CCN(C(C)C)CC5)CC4)cc3n2C)cn2ncnc12 [Example 125]")
"2.1 µM"
>>> recorded_measurement("Cc1cc(C2CCN(C3CCCN(C4CCC4)CC3)CC2)cc2c1nc(-c1ccc(S(C)(=O)=O)cc1)n2C (single isomer, unassigned) [Example 110]")
"> 50 µM"

Consider now this further molecule.
Value of measured IC50 for the entry CS(=O)(=O)c1ccc(-c2nc3ccc(C4CCN(C5CCN(C6CC6)CC5)CC4)c(F)c3[nH]2)cc1 [Example 178] : > 50 µM

---

The entries below come with measured IC50 values attached.
Molecular target: human TLR9 (Homo sapiens, UniProt Q9NR96)
Construct: host or cells: HEK-Blue cells (HEK293-derived reporter line)
Assay: TLR9 inhibition reporter assay (HEK-Blue cells, secreted embryonic alkaline phosphatase reporter)
Format: cell-based
Conditions: HEK-Blue human TLR9 reporter cells
Report as a plain number; the unit nM is understood.

Please review the following examples before continuing.
>>> recorded_measurement("Cn1c(-c2ccc(S(C)(=O)=O)cc2)nc2c(F)cc(C3CCN(C4CCCN(C5CCOCC5)CC4)CC3)cc21 (centres unmarked) [Example 301]")
48
>>> recorded_measurement("CC(C)CN1CCC(N2CCC(c3cc(F)c4nc(-c5ccc(S(C)(=O)=O)cc5)n(C5CC5)c4c3)CC2)CC1 [Example 319]")
94
>>> recorded_measurement("COCCN1C2CCC1CC(N1CCC(c3cc(F)c4nc(-c5ccc(S(C)(=O)=O)cc5)n(C)c4c3)CC1)C2 (single isomer, unassigned) [Example 291]")
57
>>> recorded_measurement("CC(C)CN1CCCC(N2CCC(c3ccc4nc(-c5ccc(S(C)(=O)=O)cc5)n(C)c4c3F)CC2)CC1 (centres unmarked) [Example 310]")
47
>>> recorded_measurement("Cc1cc(C2CCN(C3CC4CCC(C3)N4CC(C)C)CC2)cc2c1nc(-c1ccc(S(C)(=O)=O)c(F)c1)n2C (centres unmarked) [Example 342]")
120
>>> recorded_measurement("CS(=O)(=O)c1ccc(-c2nc3c(F)cc(C4CCN(C5CCN(CC6CC6)CC5)CC4)cc3n2C2CC2)cc1 [Example 320]")
77
>>> recorded_measurement("Cn1c(-c2ccc(S(C)(=O)=O)cc2)nc2c(F)cc(C3CCN(C4CC5CCC(C4)N5C4COC4)CC3)cc21 (centres unmarked) [Example 287]")
100
>>> recorded_measurement("COc1cc(-c2nc3c(C)cc(C4CCN(C5CC6CCC(C5)N6C5CCC5)CC4)cc3[nH]2)cn2ncnc12 (centres unmarked) [Example 361]")
21
>>> recorded_measurement("COc1cc(-c2nc3c(C)cc(C4CCN(C5CC6CCC(C5)N6C5CCC5)CC4)cc3n2C)cn2ncnc12 (single isomer, unassigned) [Example 355]")
11
>>> recorded_measurement("Cc1cc(C2CCN(C3CC4CCC(C3)N4CC3CC3)CC2)cc2c1nc(-c1ccc(S(C)(=O)=O)c(F)c1)n2C (centres unmarked) [Example 340]")
84

Data point: COCCN1CCCC(N2CCC(c3cc(F)c4nc(-c5ccc(S(C)(=O)=O)cc5)n(C)c4c3)CC2)CC1 (single isomer, unassigned) [Example 303] ; IC50 = 14

Record summary for Cc1cc(C2CCN(C3CC4CCC(C3)N4C(C)C)CC2)cc2[nH]c(-c3ccc(S(C)(=O)=O)cc3)nc12 (centres unmarked) [Example 332] : reported IC50 = 170

The molecule listed as Cc1cc(C2CCN(C3CC4CCC(C3)N4C(C)C)CC2)cc2[nH]c(-c3ccc(S(C)(=O)=O)c(F)c3)nc12 (centres unmarked) [Example 348] shows IC50 equal to 180

# IC50 (molecule: Cn1c(-c2ccc(S(C)(=O)=O)cc2)nc2c(F)cc(C3CCN(C4CC5CCC(C4)N5C4COC4)CC3)cc21 (centres unmarked) [Example 286] ) is 41

Lookup result for COc1cc(-c2nc3c(C)cc(C4CCN(C5CC6CCC(C5)N6C5CC5)CC4)cc3[nH]2)cn2ncnc12 (centres unmarked) [Example 360] ; measured IC50: 9.7

Data point: Cc1cc(C2CCN(C3CCN(CC(C)C)CC3)CC2)cc2c1nc(-c1ccc(S(C)(=O)=O)c(F)c1)n2C [Example 343] ; IC50 = 160

Field IC50 (entry COc1cc(-c2nc3c(C)cc(C4CCN(C5CC6CCC(C5)N6C(C)C)CC4)cc3n2C)cn2ncnc12 (centres unmarked) [Example 357] ) reads 32

Notebook: Cn1c(-c2ccc(S(C)(=O)=O)cc2)nc2c(F)cc(C3CCN(C4CC5CCC(C4)N5C4CCOCC4)CC3)cc21 (single isomer, unassigned) [Example 289] , IC50 read as 29

# IC50 (molecule: COc1cc(-c2nc3c(C)cc(C4CCN(C5CC6CCC(C5)N6CC5CC5)CC4)cc3n2C)cn2ncnc12 (centres unmarked) [Example 358] ) is 8.1

The molecule CC(C)CN1C2CCC1CC(N1CCC(c3cc(F)c4nc(-c5ccc(S(C)(=O)=O)cc5)n(C5CC5)c4c3)CC1)C2 (single isomer, unassigned) [Example 322] showed IC50 equal to 12

IC50 in this record for Cn1c(-c2ccc(S(C)(=O)=O)cc2)nc2ccc(C3CCN(C4CCCN(C5CCOCC5)CC4)CC3)c(F)c21 (centres unmarked) [Example 316] : 14

Documented IC50 of Cc1cc(C2CCN(C3CCN(c4ccccc4)CC3)CC2)cc2c1nc(-c1ccc(S(C)(=O)=O)cc1)n2C [Example 318] : 270

molecule Cc1cc(C2CCN(C3CC4CCC(C3)N4C3CC3)CC2)cc2[nH]c(-c3ccc(S(C)(=O)=O)c(F)c3)nc12 (centres unmarked) [Example 347] , IC50 observed: 44
